- TARGET: AMP-activated protein kinase, AMPK (Homo sapiens) (UniProt P54646+O43741+P54619+Q9UGJ0+Q9Y478+Q13131+Q9UGI9)
- ASSAY_TEXT: AMP-dependent Kinase enzyme assay. An in vitro enzyme assay that detects ADP turnover that is directly proportional to AMPK activity. This uses naive AMPK that is activated during the assay with MK-8722
- Assay type: functional
- Design: scale not given: direction of the effect not stated beside the values
- TEST_CONDITIONS: 30 µM
PROPERTY: Percent Effect (%)
Could you give me the number in %? Just the number is fine.

In the examples that follow, each entry is paired with its recorded Percent Effect.
> print(dat)
                                   compound  observed
1  COC(=O)c1sccc1S(=O)(=O)N1CCC(Oc2ncccc2Cl)CC1      18.7
2   COc1ccnc(N2CCN(C(=O)NCc3ccc(C)s3)CC2)n1      6.59

# input compound: Cc1noc(CN(Cc2ccc3c(c2)OCO3)Cc2ccc(C)o2)n1 ; wanted: its Percent Effect -9.33

# input compound: Cc1cc(OCC(=O)NC(C)c2ccc(N3CCOCC3)cc2)no1 (stereo unspecified) ; wanted: its Percent Effect -0.141

# input compound: Cc1noc(C)c1CNC(=O)N1CCC(CO)CC1 ; wanted: its Percent Effect -4.05

# input compound: CSc1ncccc1C(=O)N1C[C@H]2CC[C@@H]1CN(c1ncccn1)C2 ; wanted: its Percent Effect 4.3

# input compound: CC(CCN1CCn2nc(CNC(=O)N(C)C)cc2C1)c1ccccc1 (stereo unspecified) ; wanted: its Percent Effect -1.77

# input compound: COc1ccc(CC(=O)N(C)Cc2nnc3ccccn23)cc1 ; wanted: its Percent Effect 2.72

---

- TARGET: Tyrosyl-tRNA synthetase, putative (Trypanosoma cruzi (strain CL Brener)) (UniProt Q4DSP6)
- Sequence (Q4DSP6 as listed by the source): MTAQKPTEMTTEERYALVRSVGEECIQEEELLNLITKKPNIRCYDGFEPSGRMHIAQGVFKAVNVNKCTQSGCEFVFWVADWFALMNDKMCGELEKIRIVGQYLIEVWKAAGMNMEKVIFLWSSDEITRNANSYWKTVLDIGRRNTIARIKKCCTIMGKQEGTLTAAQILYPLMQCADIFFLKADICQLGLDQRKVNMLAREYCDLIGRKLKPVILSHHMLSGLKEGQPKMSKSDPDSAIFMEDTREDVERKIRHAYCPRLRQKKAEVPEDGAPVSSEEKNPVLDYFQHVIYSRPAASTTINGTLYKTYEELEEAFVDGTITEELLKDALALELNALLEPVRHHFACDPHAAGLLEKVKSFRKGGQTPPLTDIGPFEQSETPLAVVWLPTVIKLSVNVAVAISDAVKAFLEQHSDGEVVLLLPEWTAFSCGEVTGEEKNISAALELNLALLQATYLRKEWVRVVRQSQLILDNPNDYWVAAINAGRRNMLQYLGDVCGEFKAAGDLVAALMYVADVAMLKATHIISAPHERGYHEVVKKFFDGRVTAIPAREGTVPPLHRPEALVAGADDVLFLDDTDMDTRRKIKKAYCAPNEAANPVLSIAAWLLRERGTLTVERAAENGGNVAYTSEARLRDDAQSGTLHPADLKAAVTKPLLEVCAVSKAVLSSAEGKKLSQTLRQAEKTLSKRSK
- ASSAY_TEXT: Trypanosoma cruzi tyrosyl tRNA synthetase (TcYRS) SOP
- Format: functional
- Parameters: scale not given: direction of the effect not stated beside the values
- TEST_CONDITIONS: 30 µM
PROPERTY: Percent Effect (%)
Could you give me the number in %? Just the number is fine.

In the examples that follow, each entry is paired with its recorded Percent Effect.
> print(dat)
                                    compound                                    target  display.unit  observed
 1  Cc1nn(C)c(N2CCOCC2)c1CNC1CCOc2ccccc21 (stereo unspecified)  Tyrosyl-tRNA synthetase, putative (Trypanosoma cruzi (strain CL Brener)) (UniProt Q4DSP6)             %      11.4
 2       OCCn1nccc1C1CCN(CCCOc2ccc(F)cc2)CC1  Tyrosyl-tRNA synthetase, putative (Trypanosoma cruzi (strain CL Brener)) (UniProt Q4DSP6)             %      16.1
 3  NC(=O)CN1CCCN(C(=O)c2ccn(-c3ccccc3)n2)CC1  Tyrosyl-tRNA synthetase, putative (Trypanosoma cruzi (strain CL Brener)) (UniProt Q4DSP6)             %      7.69
 4      Fc1cnc(N2CCn3cc(CNc4ccccn4)nc3C2)nc1  Tyrosyl-tRNA synthetase, putative (Trypanosoma cruzi (strain CL Brener)) (UniProt Q4DSP6)             %        -5
 5  c1cc2c(cc1C1CCCN1Cc1nnnn1C1CC1)OCCO2 (stereo unspecified)  Tyrosyl-tRNA synthetase, putative (Trypanosoma cruzi (strain CL Brener)) (UniProt Q4DSP6)             %      15.4
 6  Cc1ccc(-c2ncc(C(=O)NCCNc3ncccn3)s2)c(C)c1  Tyrosyl-tRNA synthetase, putative (Trypanosoma cruzi (strain CL Brener)) (UniProt Q4DSP6)             %      16.1
 7  c1cnc(N2CCCC(NCc3cccc4c3OCCO4)C2)nc1 (stereo unspecified)  Tyrosyl-tRNA synthetase, putative (Trypanosoma cruzi (strain CL Brener)) (UniProt Q4DSP6)             %       3.7
 8  CCC(C)[C@H](NC(=O)c1cc(Br)ccc1-n1cnnn1)C(=O)OC (stereo partly specified)  Tyrosyl-tRNA synthetase, putative (Trypanosoma cruzi (strain CL Brener)) (UniProt Q4DSP6)             %     -17.9
 9  CN1CC(=O)N(c2cccnc2)CC12CCN(C(=O)c1cccnc1)C2 (stereo unspecified)  Tyrosyl-tRNA synthetase, putative (Trypanosoma cruzi (strain CL Brener)) (UniProt Q4DSP6)             %        10
10  CC(C)Oc1ncc(C(=O)N2CCC(NC(=O)C3CC3)CC2)cc1Cl  Tyrosyl-tRNA synthetase, putative (Trypanosoma cruzi (strain CL Brener)) (UniProt Q4DSP6)             %      6.17

Attention now turns to another entry.
Short answer please: Percent Effect, Tyrosyl-tRNA synthetase, putative (Trypanosoma cruzi (strain CL Brener)) (UniProt Q4DSP6), entry COCC(=O)N1CCCC1c1ccnc(Nc2cnccn2)n1 (stereo unspecified) 22.1
